Entries and their relative binding capacity (% of WT resonance signal)
# TARGET_OR_TEST_SYSTEM: T1, synthetic peptide of the ALG-2-binding site in Alix with N-terminal linker
# T1 construct: linker, printed in lower case; also called Alix ABS peptide; ABS oligopeptide; source: synthetic peptide (Biosynthesis Inc., USA)
# T1 peptide: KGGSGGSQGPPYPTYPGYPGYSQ
# METHOD_DESCRIPTION: SPR; Biacore2000, 25°C; Alix ABS peptide immobilized on CM5 chip; ALG-2 proteins 100 nM in HBS-P (10 mM HEPES-NaOH pH 7.4, 150 mM NaCl, 0.005% P20) with 100 μM CaCl2, 20 μl/min, injected 180 s; resonance signal at 10 s before dissociation phase relative to WT
# SETUP_CONDITIONS: both partners purified
Write the number in % without appending the unit.

// known answers, use as guide
>>> endpoint_result("ALG-2^F122W, full-length recombinant (natural protein, human, UniProt O75340 1-191, looked up, ALG-2, human, 191 residues, Phe122 substituted with Trp; PDB 2ZN8 is the wild-type full-length parent) MAAYSYRPGPGAGPGPAAGAALPDQSFLWNVFQRVDKDRSGVISDTELQQALSNGTWTPFNPVTVRSIISMFDRENKAGVNFSEFTGVWKYITDWQNVFRTYDRDNSGMIDKNELKQALSGWGYRLSDQFHDILIRKFDRQGRGQIAFDDFIQGCIVLQRLTDIFRRYDTDQDGWIQVSYEQYLSMVFSIV")
36
>>> endpoint_result("ALG-2^F122S, full-length recombinant (natural protein, human, UniProt O75340 1-191, looked up, ALG-2, human, 191 residues, Phe122 substituted with Ser; PDB 2ZN8 is the wild-type full-length parent) MAAYSYRPGPGAGPGPAAGAALPDQSFLWNVFQRVDKDRSGVISDTELQQALSNGTWTPFNPVTVRSIISMFDRENKAGVNFSEFTGVWKYITDWQNVFRTYDRDNSGMIDKNELKQALSGSGYRLSDQFHDILIRKFDRQGRGQIAFDDFIQGCIVLQRLTDIFRRYDTDQDGWIQVSYEQYLSMVFSIV")
89
>>> endpoint_result("ALG-2^F122G, full-length recombinant (natural protein, human, UniProt O75340 1-191, looked up, ALG-2, human, 191 residues, Phe122 substituted with Gly; PDB 2ZN8 is the wild-type full-length parent) MAAYSYRPGPGAGPGPAAGAALPDQSFLWNVFQRVDKDRSGVISDTELQQALSNGTWTPFNPVTVRSIISMFDRENKAGVNFSEFTGVWKYITDWQNVFRTYDRDNSGMIDKNELKQALSGGGYRLSDQFHDILIRKFDRQGRGQIAFDDFIQGCIVLQRLTDIFRRYDTDQDGWIQVSYEQYLSMVFSIV")
140

Let's switch to this binder now.
The value of relative binding capacity (% of WT resonance signal) measured for the binder ALG-2^F122A, full-length recombinant (natural protein, human, UniProt O75340 1-191, looked up, ALG-2, human, 191 residues, Phe122 substituted with Ala; PDB 2ZN8 is the wild-type full-length parent) MAAYSYRPGPGAGPGPAAGAALPDQSFLWNVFQRVDKDRSGVISDTELQQALSNGTWTPFNPVTVRSIISMFDRENKAGVNFSEFTGVWKYITDWQNVFRTYDRDNSGMIDKNELKQALSGAGYRLSDQFHDILIRKFDRQGRGQIAFDDFIQGCIVLQRLTDIFRRYDTDQDGWIQVSYEQYLSMVFSIV turned out to be 240
